Below: a set of entries, each annotated with reported HEK-Blue, IL-1β, % inhibition at 100 nM.
Biological target: T1, human IL1RAP (hu-IL1RAP) on human cells (human, UniProt Q9NPH3 21-570)
T1 sequence: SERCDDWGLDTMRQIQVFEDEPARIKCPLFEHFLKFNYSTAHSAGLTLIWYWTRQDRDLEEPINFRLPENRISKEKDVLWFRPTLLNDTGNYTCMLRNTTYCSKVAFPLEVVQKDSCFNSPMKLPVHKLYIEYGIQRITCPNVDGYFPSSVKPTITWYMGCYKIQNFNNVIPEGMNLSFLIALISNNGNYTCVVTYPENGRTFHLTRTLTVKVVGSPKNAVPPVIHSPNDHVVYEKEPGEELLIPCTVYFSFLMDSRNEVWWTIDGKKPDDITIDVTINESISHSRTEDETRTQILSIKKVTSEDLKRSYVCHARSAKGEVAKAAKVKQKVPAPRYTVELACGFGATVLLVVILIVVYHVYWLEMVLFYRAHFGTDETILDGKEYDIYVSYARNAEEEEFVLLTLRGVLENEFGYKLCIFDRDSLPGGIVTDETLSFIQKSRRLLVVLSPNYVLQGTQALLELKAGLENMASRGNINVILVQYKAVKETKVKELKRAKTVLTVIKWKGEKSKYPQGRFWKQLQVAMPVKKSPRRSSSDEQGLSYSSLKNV
Experiment: cell-based or functional assay
Give your result in % as a bare value.

Take a look at these entries with their results.
| binder | HEK-Blue, IL-1β, % inhibition at 100 nM / % |
| --- | --- |
| 10A11 (purified mAb from hybridoma 10A11) (antibody, V domains shown, Mouse hybridoma mAb) VH: EVQLQQSGAELVKPGASVRLSCTSSGFNIKDYFMHWVKQRTEQGLEWVGRIDPEDGETQYAPNFQDKATITVDTSSNTVYLQLSSLTSEDTAVYYCFRPLYYGNSPWFAYWGQGTLVTVSP VL: DIQMTQTTSSLSASLGDRVTISCRASQDISNYLNWYQQKPDGTVKLLIYYTSTLHSGVPSRFSGSGSGTDYSLTISNLEPEDIATYYCHQYSKFPPTFGSGTKLEIK | 72 |
| 11C5(Hy) (purified mAb from the 11C5 hybridoma) (antibody, V domains shown, Mouse hybridoma mAb; also called 11C5(Hy) mAb; mAb 11C5(Hy)) VH: EVQLVESGGGLVKPGGSLKLSCAASGFTFSNYAMSWVRQTPEKRLEWVATVTEGGDYNYCLDDVKGRFTISRDNANDNLYLQMSHLKSEDSARYYCARDRWPYFFDYWGQGTTLTVSS VL: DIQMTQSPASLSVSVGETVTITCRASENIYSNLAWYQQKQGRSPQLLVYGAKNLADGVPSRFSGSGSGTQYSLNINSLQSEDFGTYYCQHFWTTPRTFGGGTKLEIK | 99 |
| 9D5 (purified mAb from hybridoma 9D5) (antibody, V domains shown, Mouse hybridoma mAb) VH: QVQLQQSGAELARPGASVKFSCKASGYTFTSYWMQWVKQRPGQGLEWIGTIYPGDGNTRYTQKFKGKATLTADKSSSTAYMQLSGLASEDSAVYYCARGYFGNLVFDVWGAGTTVTVSS VL: DIKMTQSPSSMYASLGERVTITCKASQDINTYLSWFLQKPGKSPKTLIYRADRLVDGVPSRFSGGGSGQDYSLTISSLEYEDLGIYYCLQYDEFPYTFGSGTKLEIK | 86 |

Next binder, HEK-Blue, IL-1β, % inhibition at 100 nM to be filled in.
## Input Query: HEK-Blue, IL-1β, % inhibition at 100 nM; subject: 8H1 (purified mAb from hybridoma 8H1) (antibody, V domains shown, Mouse hybridoma mAb) VH: QVQLQQSGPELVKSGASVRISCKASGYAFSGSWMNWVKQRPGKGLEWIGRIYPGDGNTNYNGKFKDKATLTADKSSSTAFMQLSSLTSEDSAVYFCARDYYLFYFDYWGQGTTLTVSS VL: NIVMTQTPKFLPVAAEDRVIITCKASQDVSNEVAWYQQKPGQSPKLLMYYASNRYTGVPDRFTGSGSGTDFTFTISSVQVEDLAVYFCQQHYSSPLTFGAGTKLELK
## Output 64
